System: B. thailandensis ATCC 700388
METHOD_DESCRIPTION: microbe, parasite or virus in culture
Assay type: cell-based
RUN_CONDITIONS: Burkholderia thailandensis, ATCC700388, read-out: Minimum inhibitory concentration (MIC), B. thailandensis ATCC 700388
Measured MIC values are reported for all entries that follow.

Consider the reported MIC for these molecules:
| MOLECULE | MIC |
| --- | --- |
| O=C(NCCN1CCN(C(=O)NC(C(=O)N[C@H]2Cc3ccc(F)c(C(=O)O)c3OB2O)c2cc(F)c(O)c(O)c2Cl)C(=O)C1=O)c1cccc(O)c1 (some centres unmarked) | 8 to 16 µg/mL |
| O=C(O)c1c(F)ccc2c1OB(O)[C@@H](NC(=O)[C@H](NC(=O)N1CCN(C3CCN(C(=O)c4cc(O)cc(O)c4)CC3)C1=O)c1cc(F)c(O)c(O)c1F)C2 | < 1 µg/mL |
| O=C(O)c1c(F)ccc2c1OB(O)[C@@H](NC(=O)C(NC(=O)N1CCN(C3CCN(C(=O)c4cncc(O)c4)CC3)C(=O)C1=O)c1cc(F)c(O)c(O)c1Cl)C2 (some centres unmarked) | < 1 µg/mL |

What the record says about "O=C(NCCCN1CCN(C(=O)N[C@@H](C(=O)N[C@H]2Cc3ccc(F)c(C(=O)O)c3OB2O)c2cc(F)c(O)c(O)c2Cl)C(=O)C1=O)c1cccnc1" : MIC is < 1 µg/mL

MIC reported for this molecule O=C(NCCN1CCN(C(=O)NC(C(=O)N[C@H]2Cc3ccc(F)c(C(=O)O)c3OB2O)c2cc(F)c(O)c(O)c2Cl)C1=O)Nc1ccncc1 (some centres unmarked) : > 128 µg/mL

FYI, the data here is from patent US20240270762A1.
